- study_target: SIRT1 (Homo sapiens)
- Sequence (Q96EB6 1-747): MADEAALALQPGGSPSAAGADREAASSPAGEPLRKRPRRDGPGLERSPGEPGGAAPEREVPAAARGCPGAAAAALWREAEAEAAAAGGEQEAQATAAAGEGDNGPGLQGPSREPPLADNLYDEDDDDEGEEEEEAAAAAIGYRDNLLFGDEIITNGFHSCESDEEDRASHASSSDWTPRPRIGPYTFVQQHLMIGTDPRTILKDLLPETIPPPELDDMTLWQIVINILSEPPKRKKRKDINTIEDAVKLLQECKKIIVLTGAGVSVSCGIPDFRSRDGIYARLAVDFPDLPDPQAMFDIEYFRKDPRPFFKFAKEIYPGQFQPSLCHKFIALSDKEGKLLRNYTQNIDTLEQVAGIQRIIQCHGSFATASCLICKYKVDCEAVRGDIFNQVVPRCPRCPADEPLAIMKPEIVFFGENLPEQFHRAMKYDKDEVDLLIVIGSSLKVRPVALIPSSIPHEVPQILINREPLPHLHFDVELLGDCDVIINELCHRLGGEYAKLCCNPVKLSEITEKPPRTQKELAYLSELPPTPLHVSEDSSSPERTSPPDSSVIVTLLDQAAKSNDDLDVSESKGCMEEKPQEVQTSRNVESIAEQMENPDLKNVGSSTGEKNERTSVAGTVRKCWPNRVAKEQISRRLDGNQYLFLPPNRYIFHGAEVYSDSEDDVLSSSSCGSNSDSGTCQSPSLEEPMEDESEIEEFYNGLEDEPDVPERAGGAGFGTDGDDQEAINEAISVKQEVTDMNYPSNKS
- method_description: Mass spectrometry based SIRT1 deacetylation assay (activation)
- Type: biochemical
- experimental_setup: 10 nM SIRT1, 0.5 μM peptide substrate, 120 μM βNAD+, 25 min at 25° C.
value_type: EC1.5 (concentration of test compound that results in 150% activation of SIRT1)

Sample answers from the record:
Inquiry: Returns the measured EC1.5 (concentration of test compound that results in 150% activation of SIRT1) for the input compound. Input: O=C(Nc1cccnc1)c1cccc2cnc(-c3cccc(N4CCOCC4)c3)nc12 [Compound 314]
Reply text: A (EC1.5<1.0 uM)

Inquiry: Param item: O=C(Nc1cccc2ccc(-c3cccc(C(F)(F)F)c3)nc12)c1cnccn1 [Compound 4]
Reply text: A (EC1.5<1.0 uM)

Inquiry: Param item: Cc1csc(NC(=O)c2cccc3ccc(-c4cccc(C(F)(F)F)c4)nc23)n1 [Compound 27]
Reply text: A (EC1.5<1.0 uM)

Inquiry: Param item: O=C(Nc1ccccn1)c1cccc2ncc(-c3cccc(C(F)(F)F)c3)nc12 [Compound 129]
Reply text: A (EC1.5<1.0 uM)

Inquiry: Param item: O=C(Nc1ccncc1)c1cccc2ccc(-c3cccc(C(F)(F)F)c3)nc12 [Compound 32]
Reply text: A (EC1.5<1.0 uM)

Inquiry: Param item: O=C(Nc1ncnc2ccc(-c3cccc(OC(F)(F)F)c3)nc12)c1ccc(CN2CCCC2)cc1 [Compound 232]
Reply text: B (EC1.5 1-25 uM)

# return EC1.5 (concentration of test compound that results in 150% activation of SIRT1) for each item in the list
1. O=C(Nc1ncnc2ccc(-c3cccc(OC(F)(F)F)c3)nc12)c1ccccn1 [Compound 194]
2. O=C(Nc1ccncn1)c1cccc2ncc(-c3cccc(C(F)(F)F)c3)nc12 [Compound 130]
3. O=C(Nc1cccc2ccc(-c3ccccc3)nc12)c1cccc(N2CCCC2)c1 [Compound 1]
4. Cc1ncccc1-c1ccc2cccc(NC(=O)c3cscn3)c2n1 [Compound 196]

Reply text:
["A (EC1.5<1.0 uM)", "A (EC1.5<1.0 uM)", "C (EC1.5>25 uM)", "A (EC1.5<1.0 uM)"]

# return EC1.5 (concentration of test compound that results in 150% activation of SIRT1) for each item in the list
1. O=C(Nc1cccc(CN2CCOCC2)n1)c1cccc2ccc(-c3cccc(C(F)(F)F)c3)nc12 [Compound 228]
2. Fc1c(-c2ccc3cccc(NCc4cccnc4)c3n2)cccc1C(F)(F)F [Compound 165]
3. FC(F)(F)c1cccc(-c2ccc3cccc(CNC4CCCC4)c3n2)c1 [Compound 143]
4. O=C(Nc1cccc(Cl)n1)c1cccc2ccc(-c3cccc(C(F)(F)F)c3)nc12 [Compound 89]
5. FC(F)(F)c1cccc(-c2ccc3cccc(NCc4nccs4)c3n2)c1 [Compound 137]
6. O=C(Nc1cccnc1)c1ccc(F)c2ccc(-c3cccc(C(F)(F)F)c3)nc12 [Compound 67]
7. O=C(Nc1ccncn1)c1cccc2ccc(-c3ccnc(C(F)F)c3)nc12 [Compound 308]

Reply text:
1. A (EC1.5<1.0 uM)
2. C (EC1.5>25 uM)
3. C (EC1.5>25 uM)
4. C (EC1.5>25 uM)
5. C (EC1.5>25 uM)
6. A (EC1.5<1.0 uM)
7. A (EC1.5<1.0 uM)

# return EC1.5 (concentration of test compound that results in 150% activation of SIRT1) for each item in the list
1. Cc1cc(-c2ccc3cccc(NC(=O)c4cscn4)c3n2)ccn1 [Compound 197]
2. O=C(Nc1ccc(OCC(O)CO)cc1)c1cccc2ccc(-c3cccc(OC(F)(F)F)c3)nc12 (centres unmarked) [Compound 150]
3. O=C(Nc1cc[nH]n1)c1cccc2ccc(-c3cccc(C(F)(F)F)c3)nc12 [Compound 34]
4. O=C(Nc1nc2ccccc2s1)c1cccc2ccc(-c3cccc(N4CCOCC4)c3)nc12 [Compound 250]
5. O=C(NC1CCCC1)c1cccc2ccc(-c3cccc(C(F)(F)F)c3)nc12 [Compound 40]
6. O=C(Nc1ncnc2ccc(-c3cccc(C(F)(F)F)c3)nc12)c1cscn1 [Compound 259]
7. O=C(Nc1nncs1)c1cccc2ccc(-c3cccc(C(F)(F)F)c3)nc12 [Compound 28]

Reply text:
["A (EC1.5<1.0 uM)", "A (EC1.5<1.0 uM)", "B (EC1.5 1-25 uM)", "A (EC1.5<1.0 uM)", "C (EC1.5>25 uM)", "A (EC1.5<1.0 uM)", "A (EC1.5<1.0 uM)"]

# return EC1.5 (concentration of test compound that results in 150% activation of SIRT1) for each item in the list
1. O=C(Nc1ncccn1)c1cccc2ccc(-c3cccc(C(F)(F)F)c3)nc12 [Compound 48]
2. O=C(Nc1nccs1)c1cccc2ccc(-c3ccnc(N4CCC4)c3)nc12 [Compound 179]
3. FC(F)(F)c1ccccc1-c1ccc2cccc(NCc3cccnc3)c2n1 [Compound 162]
4. O=C(Nc1nncs1)c1cccc2ccc(-c3cccc(N4CCOCC4)c3)nc12 [Compound 251]

Reply text:
1. A (EC1.5<1.0 uM)
2. A (EC1.5<1.0 uM)
3. C (EC1.5>25 uM)
4. A (EC1.5<1.0 uM)

* * *

- study_target: SIRT1 (Homo sapiens, UniProt Q96EB6)
- method_description: Mass spectrometry based SIRT1 deacetylation assay (activation)
- Format: biochemical
- experimental_setup: 10 nM SIRT1, 0.5 μM peptide substrate, 120 μM βNAD+, 25 min at 25° C.
- Description: A mass spectrometry based assay was used to identify modulators of SIRT1 activity. The mass spectrometry based assay utilizes a peptide having 20 amino acid residues as follows: Ac-EE-K (biotin)-GQSTSSHSK (Ac)N1eSTEG-K(5TMR)-EE-NH2 (SEQ ID NO: 1) wherein K(Ac) is an acetylated lysine residue and Nle is a norleucine. The peptide is labeled with the fluorophore 5TMR (excitation 540 nm/emission 580 nm) at the C-terminus. The sequence of the peptide substrate is based on p53 with several modifications. […]
value_type: EC1.5 (concentration of test compound that results in 150% activation of SIRT1)

Inquiry: Returns the measured EC1.5 (concentration of test compound that results in 150% activation of SIRT1) for the input compound. Input: Cc1nc(NC(=O)c2cccc3ccc(-c4cccc(N5CCOCC5)c4)nc23)sc1C
Reply text: A (EC1.5<1.0 uM)

Inquiry: Param item: O=C(Nc1cccc2ccc(-c3ccc(F)c(C(F)(F)F)c3)nc12)c1ccccc1
Reply text: C (EC1.5>25 uM)

Inquiry: Param item: O=C(Nc1cccc2ccc(-c3cc(F)cc(C(F)(F)F)c3)nc12)c1ccccn1
Reply text: C (EC1.5>25 uM)

Inquiry: Param item: O=C(Nc1nccs1)c1cccc2ccc(-c3cccc(N4CCOCC4)c3)nc12
Reply text: A (EC1.5<1.0 uM)

Inquiry: Param item: O=C(Nc1cccnc1)c1cccc2ccc(-c3cccc(C(F)(F)F)c3)nc12
Reply text: A (EC1.5<1.0 uM)

# return EC1.5 (concentration of test compound that results in 150% activation of SIRT1) for each item in the list
1. O=C(Nc1nccs1)c1cccc2ccc(-c3ccccc3C(F)(F)F)nc12
2. O=C(NCc1ccncc1)c1cccc2ccc(-c3cccc(C(F)(F)F)c3)nc12
3. O=C(Nc1ccccc1)c1cccc2ccc(-c3ccccc3)nc12

Reply text:
1. B (EC1.5 1-25 uM)
2. B (EC1.5 1-25 uM)
3. C (EC1.5>25 uM)
